Values of MIC reported for Escherichia coli ATCC 25922 appear below.
Give just the number in µM; leave the unit off.

Look up MIC: CC[C@H](C)[C@H](NC(=O)[C@H](CCCN=C(N)N)NC(=O)[C@H](CCCN=C(N)N)NC(=O)[C@H](Cc1ccccc1)NC(=O)[C@H](CC(C)C)NC(=O)[C@H](CCCN=C(N)N)NC(=O)[C@@H](N)CCCN=C(N)N)C(=O)N[C@@H](CC(C)C)C(=O)N[C@@H](CCCN=C(N)N)C(=O)N[C@@H](Cc1ccc(O)cc1)C(=O)N[C@@H](CC(C)C)C(N)=O
0.9

// returns reported MIC for input CC[C@H](C)[C@H](NC(=O)[C@H](C)NC(=O)[C@H](CCCN=C(N)N)NC(=O)[C@H](CCCCN)NC(=O)[C@H](C)NC(=O)[C@H](CCC(N)=O)NC(=O)[C@H](CC(C)C)NC(=O)[C@H](CCCCN)NC(=O)[C@H](Cc1ccccc1)NC(=O)[C@H](CC(C)C)NC(=O)[C@H](CCCCN)NC(=O)[C@H](Cc1ccccc1)NC(=O)[C@@H](NC(=O)[C@@H](NC(=O)[C@H](CCCCN)NC(=O)[C@H](C)NC(=O)[C@H](C)NC(=O)[C@@H](N)CCCCN)[C@@H](C)O)C(C)C)C(=O)N[C@@H](CCC(=O)O)C(=O)N[C@@H](C)C(N)=O
128
